# credit: the supplement of paper PMC8728848

# subject-of-test: Gal(b1-4)GlcNAc(b1-2)[Gal(b1-4)GlcNAc(b1-4)]Man(a1-3)[Gal(b1-4)GlcNAc(b1-2)Man(a1-6)]Man(b1-4)GlcNAc(b1-4)GlcNAc
# test-details: glycan array binding signal (z-score within array); higher = stronger binding
# measurement-setup: glycan notation: IUPAC condensed, linker removed
The sample as a whole holds a higher share of the strongest signals than the screen did.
quantity-kind: glycan array binding signal (z-score)
Please give only the number in your answer, with no unit.

Example results:
# binder, glycan array binding signal (z-score)
data = [
    ("SP16665A-bot-344-23-344 (Bacteroides ovatus) (protein) SDNEFPDFDYQTVYFANQYGLRTIELGESEFVDNTLDNQHKMVIKAAWGGGYTNRNNVVINFKVDESLCDNLYFKDTDQPLVPMPASYYTLASDRIAIPKGQIMAGVEVQLTDDFFADEKSISENYVIPLLMTNVQGADSILQGKPVVENPVLTNAGDWSILPQNFVLYAVKYVNPWHGEYLRRGIDHATVAGTSKDIIRHEQFVENDEVVNISTKSMKDNLLTLKTKDESGKDISYTVRLSFAEDGSCTVHSGSQNVVVSGSGKFVSKGEKNSLGGKDRNAIYLDYTVNLTDNNIQLATKDTLVLRTRNVYGGKSLEVVRK", -0.051),
    ("Mermaid2 (Stilbonema majum) (protein) MGSSHHHHHHSSGLVPRGSHMAASGWLRSPQGTVVKLYRRSLSWSKADEFCKDVDGRLVVDRTADMHLFLIKNVLKEKKSRVWVGLRRTAPHSRTWIWSDGTRQNEDDLNTNLWLRDEPNDAAGEEECALFMYSPWEKAWGLNDYLCRGGCRSYQFICEKGIR", 0.034),
    ("B936 (Bifidobacterium sp) (protein) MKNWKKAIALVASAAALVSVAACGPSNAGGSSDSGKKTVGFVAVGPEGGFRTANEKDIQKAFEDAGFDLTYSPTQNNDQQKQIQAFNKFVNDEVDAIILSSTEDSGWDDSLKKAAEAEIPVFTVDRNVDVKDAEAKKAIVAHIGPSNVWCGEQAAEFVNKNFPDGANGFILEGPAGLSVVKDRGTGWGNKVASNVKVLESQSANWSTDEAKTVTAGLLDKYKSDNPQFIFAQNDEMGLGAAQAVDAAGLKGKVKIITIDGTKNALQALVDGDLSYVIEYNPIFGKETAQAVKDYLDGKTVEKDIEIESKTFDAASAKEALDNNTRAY", -0.689),
    ("Calsepa (Calystegia sepium), P93114 (protein) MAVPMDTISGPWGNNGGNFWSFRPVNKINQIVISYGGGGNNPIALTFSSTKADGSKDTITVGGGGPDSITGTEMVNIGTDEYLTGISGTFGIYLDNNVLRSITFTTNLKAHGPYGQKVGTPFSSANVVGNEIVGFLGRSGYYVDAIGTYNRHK", -0.045),
]

Next binder, please.
Find the recorded glycan array binding signal (z-score) belonging to Actd5 (Actinidia), P84527 (protein) ISSCNGPCRDLNDCDGQLICIKGKCNDDPQVGTHICRGTTHSHQPGGCKPSGTLTCRGKSYPTYDCSPPVTSSTPAKLTNNDFSEGGDDGGPSECDESYHNNNERIVALSTGWYNGGSRCGKMIRITASNGKSVSAKVVDECDSRHGCDKEHAGQPPCRNNIVDGSNAVWSALGLDKNVGVVDITWSMA and report it.
0.256
